Test system: Vero C1008
Details: chlorocebus sabaeus, vero c1008, 48 h
REPORTED ENDPOINT: CC50 (µM)

> print(dat)
   construct.sequence  reported.endpoint  value.unit  assay.value
1         FLUPENTIXOL               CC50          µM         7.67

----------
Test: in vitro
Conditions: chlorocebus sabaeus, vero c1008, CC50
REPORTED ENDPOINT: CC50 at 48 h (µM)

> print(dat)
                                   molecule  assay.value
1  CNCC[C@@H](Oc1cccc2ccccc12)c1cccs1 [(R)-DULOXETINE]         16.2
2                  CNCCCCOc1ccccc1Cc1ccccc1         26.9
3               CNCCCC1c2ccccc2C=Cc2ccccc21         26.3
4               CNCCC=C1c2ccccc2CCc2ccccc21           24

All figures here come from ChEMBL document CHEMBL4651402.
